These measurements were taken from patent US20060264460A1.

Biological target: human Cot/Tpl2 kinase (Homo sapiens, UniProt P41279)
Construct: human Cot/Tpl2 kinase construct encoding residues 30-398; 6His (N); made in house; host or cells: Sf9 insect cells, baculovirus system (BD Biosciences)
Sequence (P41279 30-398): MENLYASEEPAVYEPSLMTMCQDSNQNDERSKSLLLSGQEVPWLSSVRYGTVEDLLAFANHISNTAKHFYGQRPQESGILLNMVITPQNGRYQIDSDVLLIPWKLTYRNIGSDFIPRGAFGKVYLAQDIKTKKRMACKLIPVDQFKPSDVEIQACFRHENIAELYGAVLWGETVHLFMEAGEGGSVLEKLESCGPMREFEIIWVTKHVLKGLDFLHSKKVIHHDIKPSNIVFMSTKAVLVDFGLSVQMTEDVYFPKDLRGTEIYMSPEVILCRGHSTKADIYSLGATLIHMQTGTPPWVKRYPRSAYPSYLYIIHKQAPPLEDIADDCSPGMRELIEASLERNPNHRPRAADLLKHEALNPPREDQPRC
Test: Tpl2/Cot kinase assay: GST-MEK1 phosphorylation detected by ELISA (DELFIA Eu)
Format: biochemical
Conditions: Tpl2/Cot kinase, GST-MEK1 substrate, 50 uM ATP, 1 h at 30° C.; Table 2
pIC50: −log10 of the molar value.
MEASUREMENT NAME: pIC50

CC(C)(C)OC(=O)N1CCC(n2cc(CNc3cc(Cl)c4ncc(C#N)c(NC5CCCCCC5)c4c3)nn2)CC1: 5.64
N#Cc1cnc2c(Cl)cc(N(Cc3cn(C4CCN(CC5CC5)CC4)nn3)CC3CC3)cc2c1Nc1ccc(F)c(Cl)c1: 6.39
N#Cc1cnc2c(Cl)cc(NCc3cn(C4CC5CCC(C4)N5CC4CC4)nn3)cc2c1Nc1ccc(F)c(Cl)c1 (stereo not shown): 7.96
CN1CCN(CCn2cc(CNc3cc(Cl)c4ncc(C#N)c(Nc5ccc(F)c(Cl)c5)c4c3)nn2)CC1: 6.19

---

Target: human Cot/Tpl2 kinase (Homo sapiens, UniProt P41279)
Construct: human Cot/Tpl2 kinase construct encoding residues 30-398; 6His (N); made in house; host or cells: Sf9 insect cells, baculovirus system (BD Biosciences)
Assay: Tpl2/Cot kinase assay: GST-MEK1 phosphorylation detected by ELISA (DELFIA Eu)
Type: biochemical
Details: Tpl2/Cot kinase, GST-MEK1 substrate, 50 uM ATP
pIC50: −log10 of the molar value.
compounds and their reported pIC50
MEASUREMENT NAME: pIC50

CN(C)C(=O)Cn1cc(CNc2cc(Br)c3ncc(C#N)c(Nc4ccc(F)c(Cl)c4)c3c2)nn1: 7.85
CC(C)(C)OC(=O)N1CCC(CCn2cc(CNc3cc(Cl)c4ncc(C#N)c(Nc5ccc(F)c(Cl)c5)c4c3)nn2)CC1: 7.12
CC(C)(C)OC(=O)N1CCC[C@H]1Cn1cc(CNc2cc(Cl)c3ncc(C#N)c(Nc4ccc(F)c(Cl)c4)c3c2)nn1: 6.70
N#Cc1cnc2c(Br)cc(NCc3cn(CC(F)(F)F)nn3)cc2c1Nc1ccc(F)c(Cl)c1: 7.00
CN1CCN(CCCn2cc(CNc3cc(Br)c4ncc(C#N)c(Nc5ccc(F)c(Cl)c5)c4c3)nn2)CC1: 7.54
CN(C)C(=O)Cn1cc(CN(C)c2cc(Cl)c3ncc(C#N)c(Nc4ccc(F)c(Cl)c4)c3c2)nn1: 6.82
CS(=O)(=O)CCn1cnc(CNc2cc(Br)c3ncc(C#N)c(Nc4ccc(F)c(Cl)c4)c3c2)c1: 7.37

---

compounds and their reported IC50
Target: human Cot/Tpl2 kinase (Homo sapiens, UniProt P41279)
Construct: human Cot/Tpl2 kinase construct encoding residues 30-398; 6His (N); made in house; host or cells: Sf9 insect cells, baculovirus system (BD Biosciences)
Assay: Tpl2/Cot kinase assay: GST-MEK1 phosphorylation detected by ELISA (DELFIA Eu)
Format: biochemical
Details: Tpl2/Cot kinase, GST-MEK1 substrate, 50 uM ATP
MEASUREMENT NAME: IC50 (nM)

N#Cc1cnc2c(Cl)cc(NCc3cn(CCC4CCNCC4)nn3)cc2c1Nc1ccc(F)c(Cl)c1: 130
CN(CCn1cc(CN(Cc2cn(CCN(C)C(=O)OC(C)(C)C)nn2)c2cc(Br)c3ncc(C#N)c(Nc4ccc(F)c(Cl)c4)c3c2)nn1)C(=O)OC(C)(C)C: 4700
N#Cc1cnc2c(Cl)cc(NCc3cn(CCOC(N)=O)nn3)cc2c1Nc1ccc(F)c(Cl)c1: 5.9
CC(=O)N1CCC[C@H]1CNc1cc(Cl)c2ncc(C#N)c(Nc3ccc(F)c(Cl)c3)c2c1: 54
CN(C)CCn1cc(CNc2cc(Br)c3ncc(C#N)c(Nc4ccc(F)c(Cl)c4)c3c2)nn1: 24
N#Cc1cnc2c(Cl)cc(NCc3cn(CCCN4CCCCC4)nn3)cc2c1Nc1ccc(F)c(Cl)c1: 1.1
N#Cc1cnc2c(Cl)cc(N(C=O)Cc3cn(CCCNC=O)nn3)cc2c1Nc1ccc(F)c(Cl)c1: 170
CSCCn1cc(CNc2cc(Br)c3ncc(C#N)c(Nc4ccc(F)c(Cl)c4)c3c2)nn1: 82
CN1CCC[C@H]1Cn1cc(CNc2cc(Cl)c3ncc(C#N)c(Nc4ccc(F)c(Cl)c4)c3c2)nn1: 1.8
N#Cc1cnc2c(Cl)cc(NCc3cn(CCCN4CCC(F)(F)CC4)nn3)cc2c1Nc1ccc(F)c(Cl)c1: 29
CN1CCCC1CCNC(=O)Cn1cc(CNc2cc(Cl)c3ncc(C#N)c(Nc4ccc(F)c(Cl)c4)c3c2)nn1 (centres unmarked) [Example 817]: 6.9
CN1CCCN(CCCn2cc(CNc3cc(Br)c4ncc(C#N)c(Nc5ccc(F)c(Cl)c5)c4c3)nn2)CC1: 70
